System: NCI-H2122 (Lung Adenocarcinoma)
Experiment: combination Emax (second highest fraction inhibited in the dose matrix, 72 h); higher = more inhibition; extreme values may be limits of the assay
Quick reference for combination Emax among some molecules

For reference, reported combination Emax for NC1(C(=O)N[C@@H](CCO)c2ccc(Cl)cc2)CCN(c2ncnc3[nH]ccc23)CC1 [Capivasertib] + CCN(CCO)CCCOc1ccc2c(Nc3cc(CC(=O)Nc4cccc(F)c4)[nH]n3)ncnc2c1 [AZD2811] (first compound max 10 µM, 7x7, partner max 1 µM) stands at 0.797

For reference, reported combination Emax for COc1nnc2ccc(N3CCC(c4ccc(OCCN5CCN(C)C(=O)[C@H]5C)cc4)CC3)nn12 [AZD5153] + CCN(CCO)CCCOc1ccc2c(Nc3cc(CC(=O)Nc4cccc(F)c4)[nH]n3)ncnc2c1 [AZD2811] (first compound max 1 µM, 7x7, partner max 1 µM) stands at 0.853

For reference, reported combination Emax for C=CCn1c(=O)c2cnc(Nc3ccc(N4CCN(C)CC4)cc3)nc2n1-c1cccc(C(C)(C)O)n1 [AZD1775] + C1CN(CCC1(C(=O)N[C@@H](CCO)C2=CC=C(C=C2)Cl)N)C3=NC=NC4=C3C=CN4 [Capivasertib] (first compound max 3 µM, partner max 3 µM) stands at 0.931

For reference, reported combination Emax for CCN(CCO)CCCOc1ccc2c(Nc3cc(CC(=O)Nc4cccc(F)c4)[nH]n3)ncnc2c1 [AZD2811] + O=C(c1cc(Cc2n[nH]c(=O)c3ccccc23)ccc1F)N1CCN(C(=O)C2CC2)CC1 [Olaparib] (first compound max 1 µM, 7x7, partner max 10 µM) stands at 0.437

For reference, reported combination Emax for CN(CCO)CC[C@H](CSc1ccccc1)Nc1ccc(S(=O)(=O)NC(=O)c2ccc(N3CCC([C@@H](O)c4ccccc4-c4ccc(Cl)cc4)CC3)cc2)cc1S(=O)(=O)C(F)(F)F [AZD4320] + C[C@@H](Nc1cc(F)cc(F)c1)c1cc(C(=O)N(C)C)cc2c(=O)cc(N3CCOCC3)oc12 [AZD8186] (first compound max 1 µM, 7x7, partner max 3 µM) stands at 0.536

For reference, reported combination Emax for C[C@@H](c1ccc2nccn2c1)n1nnc2ncc(-c3cnn(C)c3)nc21 [Savolitinib] + CC1(C)CCC(CN2CCN(c3ccc(C(=O)NS(=O)(=O)c4ccc(NCC5CCOCC5)c([N+](=O)[O-])c4)c(Oc4cnc5[nH]ccc5c4)c3)CC2)=C(c2ccc(Cl)cc2)C1 [Venetoclax] (first compound max 1 µM, 7x7, partner max 1 µM) stands at 0.196

For reference, reported combination Emax for CN(C)CCCOc1ccc(-c2ccc3ncc4c(c3c2)n(C2CCOCC2)c(=O)n4C)cn1 [AZD0156] + O=C(c1cc(Cc2n[nH]c(=O)c3ccccc23)ccc1F)N1CCN(C(=O)C2CC2)CC1 [Olaparib] (first compound max 3 µM, partner max 3 µM) stands at 0.355

###

Tested on: EFO-21 (Ovarian Carcinoma)
Experiment: combination Emax (second highest fraction inhibited in the dose matrix, 72 h); higher = more inhibition; extreme values may be limits of the assay
Quick reference for combination Emax among some compounds
Returns: the value as a bare number; no unit string appended.

{"Compound": "COc1cccc(OCCCN)c1-c1cc(Nc2cnc(C#N)cn2)n[nH]1 [Prexasertib] + CCc1c2c(nc3ccc(O)cc13)-c1cc3c(c(=O)n1C2)COC(=O)[C@]3(O)CC [SN-38] (first compound max 1 µM, 7x7, partner max 0.3 µM)", "Observed Value": 0.671}
{"Compound": "CN(CCO)CC[C@H](CSc1ccccc1)Nc1ccc(S(=O)(=O)NC(=O)c2ccc(N3CCC([C@@H](O)c4ccccc4-c4ccc(Cl)cc4)CC3)cc2)cc1S(=O)(=O)C(F)(F)F [AZD4320] + CCN(CCO)CCCOc1ccc2c(Nc3cc(CC(=O)Nc4cccc(F)c4)[nH]n3)ncnc2c1 [AZD2811] (first compound max 1 µM, 7x7, partner max 1 µM)", "Observed Value": 0.196}
{"Compound": "Cc1c2c(nn1C)CSCc1cc(n(C)n1)CSc1cc(c3ccccc3c1)OCCCc1c(C(=O)O)n(C)c3c-2c(Cl)ccc13 [AZD5991] + CCN(CCO)CCCOc1ccc2c(Nc3cc(CC(=O)Nc4cccc(F)c4)[nH]n3)ncnc2c1 [AZD2811] (first compound max 1 µM, 7x7, partner max 1 µM)", "Observed Value": 0.343}

// switching to the query compound
For reference, reported combination Emax for CN(C)CCCOc1ccc(-c2ccc3ncc4c(c3c2)n(C2CCOCC2)c(=O)n4C)cn1 [AZD0156] + C=CCn1c(=O)c2cnc(Nc3ccc(N4CCN(C)CC4)cc3)nc2n1-c1cccc(C(C)(C)O)n1 [AZD1775] (first compound max 1 µM, partner max 1 µM) stands at 0.472
